# Target under test: FGFR3 (Homo sapiens)
# Construct: purchased DiscoveRx Corporation
# Sequence (P22607 23-806): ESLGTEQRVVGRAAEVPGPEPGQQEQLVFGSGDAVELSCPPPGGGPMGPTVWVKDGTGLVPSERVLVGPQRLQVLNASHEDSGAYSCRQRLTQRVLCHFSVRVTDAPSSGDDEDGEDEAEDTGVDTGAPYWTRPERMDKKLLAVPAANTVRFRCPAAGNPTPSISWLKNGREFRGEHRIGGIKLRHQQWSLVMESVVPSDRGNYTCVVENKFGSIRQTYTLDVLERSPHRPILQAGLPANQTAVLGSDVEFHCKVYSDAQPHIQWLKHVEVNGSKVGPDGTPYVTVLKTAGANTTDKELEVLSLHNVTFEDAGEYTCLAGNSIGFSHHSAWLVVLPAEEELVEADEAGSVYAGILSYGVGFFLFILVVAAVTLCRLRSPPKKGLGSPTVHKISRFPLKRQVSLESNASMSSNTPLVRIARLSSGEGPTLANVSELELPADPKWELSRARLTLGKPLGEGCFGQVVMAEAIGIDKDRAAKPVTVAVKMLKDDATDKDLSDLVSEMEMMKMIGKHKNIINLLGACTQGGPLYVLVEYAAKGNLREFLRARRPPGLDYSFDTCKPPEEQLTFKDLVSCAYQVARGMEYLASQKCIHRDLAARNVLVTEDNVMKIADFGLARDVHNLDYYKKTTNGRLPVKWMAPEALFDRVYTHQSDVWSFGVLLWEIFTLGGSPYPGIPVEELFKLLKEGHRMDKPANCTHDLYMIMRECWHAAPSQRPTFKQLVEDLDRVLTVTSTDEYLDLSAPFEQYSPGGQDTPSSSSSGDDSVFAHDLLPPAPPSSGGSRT
# Experiment notes: Enzyme binding assay (KINOMEscan) FGFR3
# Condition details: pKd = -log Kd (M), read-out: FGFR3_pKd (converted)
Endpoint label: Kd (M)
Enter your answer as a number in M; do not include the unit.

If you can, please state the reported Kd value of `COc1cc(OC)c(F)c(N(Cc2ncc[nH]2)c2ccc3ncn(C4CCNCC4)c(=O)c3c2)c1F` .
2e-08

Suppose we examine the molecule `COc1cc(OC)c(F)c(N(Cc2nccn2S(=O)(=O)N(C)C)c2ccc3ncn(-c4cccnc4)c(=O)c3c2)c1` ; what Kd value has been reported?
2.51e-07

Query: Kd; subject: `COc1cc(OC)c(F)c(N(CCO)c2ccc3ncn(-c4cccnc4)c(=O)c3c2)c1`
6.31e-08

Name the recorded Kd for `COc1cc(OC)c(F)c(N(CCCNC(C)C)c2ccc3ncn(C4CCNCC4)c(=O)c3c2)c1F` .
1.26e-08

Record request: Kd value, item `COc1cc(OC)c(F)c(N(CCO)c2ccc3ncn(C4CCNCC4)c(=O)c3c2)c1F`
1e-07

Values from patent US9493426B2
